Hello, the source for this data is PubChem BioAssay, in case you need it.

Below, each entry is listed with its recorded growth inhibition.
experiment: inhibition of 3D7 malaria parasite growth – strain 3D7 (AID 2306);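 also: 0% = DMSO wells and 100% = chloroquine plus artemisinin control wells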; details: P. falciparum 3D7 erythrocytic growth, LDH absorbance, 72 h; at 2 µM; hits give high values
Express your answer in %, writing the number without its unit.

| molecule | unit_info | growth inhibition |
| --- | --- | --- |
| CS(=O)(=O)c1ccc2nc(-c3cc(-c4ccc(OCCN5CCOCC5)cc4)cnc3N)[nH]c2c1 | % | 100 |

Problem: Recorded growth inhibition of CCOC(=O)c1ccc(NC(=O)Nc2cccc(-c3ccc(-c4nc5ccccc5[nH]4)cc3)c2)cc1 , please.
Solution: 100

Problem: Using the record for CCOC(=O)N1NC(=O)N(c2ccccc2)C1(c1ccccc1)c1ccccc1 , report its growth inhibition.
Solution: 96

Problem: State the recorded growth inhibition for this entry: CCc1c(C)nc(-n2nc(C)cc2NC(=O)C(CC)c2ccccc2)[nH]c1=O (stereo not drawn)
Solution: 97

Problem: Entry under review: CCOc1ccc(Nc2nc(N)c3ccccc3n2)cc1 . Reported growth inhibition?
Solution: 90

Problem: Item under review: CC(Oc1cccc(Cl)c1)C(=O)N1CCc2ccccc21 (stereo not drawn) . Reported growth inhibition?
Solution: 94

Problem: I would be grateful if you could share the reported growth inhibition for OCc1ccc(-c2cncc(Nc3cccc(Cl)c3)c2)cc1 .
Solution: 95

Problem: Endpoint output: growth inhibition of CC1(CCc2ccccc2)N=C(N)N(Cc2ccccc2)C(=O)C1c1ccc(Cl)c(Cl)c1 (stereo not drawn) . Value?
Solution: 97

====

experiment: antimalarial activity against Dd2 strain (AID 2302);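 also: 0% = DMSO untreated growth and 100% = chloroquine plus artemisinin killed control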; settings: P. falciparum Dd2 in RBCs, LDH growth readout, 72 h; at 2 µM
The source made the active and inactive calls.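 How the source made its calls: active means growth inhibition above 50% at the single 2 µM test dose, taken to imply half-maximal potency below 2 µM; inactive means the rest.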
The reply should name one outcome from active, inactive

Known results for molecules:
| molecular_string | assigned_label |
| --- | --- |
| COc1ccc2nccc([C@@H](O)CN3CCC(NCc4ccc5c(c4)NC(=O)C(C)(C)O5)CC3)c2c1 | active |
| Cc1[nH]c(C)c(-c2ccc(-c3cccc(OC(F)(F)F)c3)nc2)c(=O)c1Cl | active |
| CCOc1ccc(CCC(=O)O)cc1OCC | inactive |
| CCNc1cc(C(=O)N[C@@H](Cc2ccccc2)[C@H](O)CNCc2ccc3c(c2)OCCO3)cc(N2CCCCS2(=O)=O)c1 | inactive |
| CCOCCCNc1sc(S(=O)(=O)c2ccccc2)nc1S(=O)(=O)c1ccc(C)cc1 | active |
| OCCN1CCN(Cc2ccc(-c3ccc(-c4nc5ccc(C(F)(F)F)cc5[nH]4)s3)cc2)CC1 | active |
| Cc1noc(C)c1-c1cccc(CNCc2cccc(-c3cccc(-c4nc5ccc(C(F)(F)F)cc5[nH]4)c3)c2)c1 | active |
| COc1ccc2nccc([C@@H](O)CN3CCC(NC(=O)c4ccc(Cl)c([N+](=O)[O-])c4)CC3)c2c1 | inactive |

Problem: Please share the test call associated with O=c1cc(NCCCNCc2ccc(C(F)(F)F)c(F)c2)[nH]c2ccccc12 .
Solution: inactive

====

molecular target: L-lactate dehydrogenase (Plasmodium falciparum (isolate CDC / Honduras)); experiment: PfLDH activity inhibition – cell lysate, 3D7 strain, counter-screen for P. falciparum growth inhibition project (AID 2304);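 also: 0% = vehicle and 100% = reference inhibitor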; details: P. falciparum 3D7 crude extract, LDH APAD/NBT absorbance; at 2 µM; hits give high values
measured_quantity: inhibition (%)
Answer in %, number only, no unit symbol.

Sample answers from the record:
| molecule | system | inhibition / % |
| --- | --- | --- |
| COC(=O)[C@@H](NC(=O)[C@H](CC(C)C)Nc1ccc(C#N)c2ccccc12)c1ccc(O)cc1 | L-lactate dehydrogenase (Plasmodium falciparum (isolate CDC / Honduras)) | 0 |
| CC(C)OC(=O)c1ccc(NC(=O)N[C@@H](Cc2ccc(O)cc2)C(=O)NC2C[C@H]3CC[C@@H](C2)N3Cc2ccccc2)cc1 (stereo partly drawn) | L-lactate dehydrogenase (Plasmodium falciparum (isolate CDC / Honduras)) | -5 |
| COc1ccc(Oc2ccc(Nc3ccnc4ccc(C(F)(F)F)cc34)cc2)cc1OC | L-lactate dehydrogenase (Plasmodium falciparum (isolate CDC / Honduras)) | 2 |
| CCc1c(CCNCCc2cccc(CCNCCc3ccc(OC)c(OC)c3CC)c2)ccc(OC)c1OC | L-lactate dehydrogenase (Plasmodium falciparum (isolate CDC / Honduras)) | -6 |
| CCC(C)CN1CCCN(c2ccc(NC(=O)c3cccs3)cc2)CC1 (stereo not drawn) | L-lactate dehydrogenase (Plasmodium falciparum (isolate CDC / Honduras)) | -2 |

Problem: // lookup inhibition | system=L-lactate dehydrogenase (Plasmodium falciparum (isolate CDC / Honduras)) | key= CC(C)Nc1nc(NCCc2cnc[nH]2)nc(Nc2ccc(Oc3ccccc3)cc2)n1
Solution: 1

Problem: Please state recorded inhibition (tested on L-lactate dehydrogenase (Plasmodium falciparum (isolate CDC / Honduras))) of COc1ccc(-n2ccnc2SCC(=O)Nc2cc(C(F)(F)F)ccc2Cl)c(OC)c1
Solution: -8

Problem: # value lookup — system L-lactate dehydrogenase (Plasmodium falciparum (isolate CDC / Honduras)), readout inhibition, item CN1CCN(c2ccnc3cc4c(cc23)N(C(=O)Nc2ccc3c(c2)CCCC3=O)CC4)CC1
Solution: -5
